System: 855422-203-R-J1-PDC complex spheroid viability
Test: Anticancer human tumor 855422-203-R-J1-PDC patient-derived bladder carcinoma cell line growth inhibition [POLQ]
Settings: second compound 3.16 µM; first compound 1 µM; hits give low values

COMPOUND	SYSTEM	OUTPUT_UNIT	viability, T/C
COc1ccc([C@@H](O)c2cc(-c3ncnc4cc(N5CCOCC5)ccc34)c(F)cc2Cl)nn1 + Nc1ccc(C#CCN(C(=O)Cc2ncc(C(F)(F)F)cc2C(F)(F)F)c2ccc(F)cc2)nn1	855422-203-R-J1-PDC complex spheroid viability	%	94.2
O=C(c1cc(Cc2n[nH]c(=O)c3ccccc23)ccc1F)N1CCN(C(=O)C2CC2)CC1 + Nc1ccc(C#CCN(C(=O)Cc2ncc(C(F)(F)F)cc2C(F)(F)F)c2ccc(F)cc2)nn1	855422-203-R-J1-PDC complex spheroid viability	%	107
COc1cccc2c1C(=O)c1c(O)c3c(c(O)c1C2=O)CC(O)(C(=O)CO)CC3OC1CC(N)C(O)C(C)O1 (stereo not drawn) + Nc1ccc(C#CCN(C(=O)Cc2ncc(C(F)(F)F)cc2C(F)(F)F)c2ccc(F)cc2)nn1	855422-203-R-J1-PDC complex spheroid viability	%	1.14

====

Test system: 855422-203-R-J1-PDC complex spheroid viability
Assay: Anticancer human tumor 855422-203-R-J1-PDC cell line growth inhibition [POLQ]; active = viability on the fitted dose curve at most 10% of control; inactive = the rest;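 note: spheroids exposed to compounds for seven days before readout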
Details: second compound 0.0316 µM; first compound 10 µM
Outcome codes: active, inactive

MOLECULE	ANSWER_LABEL
CCc1cc2c(N3CCc4c(cc(Cn5ccnc5)cc4-c4cn(C)nc4C(F)(F)F)C3=O)cc(C)nc2c(OC)n1 + Nc1ccc(C#CCN(C(=O)Cc2ncc(C(F)(F)F)cc2C(F)(F)F)c2ccc(F)cc2)nn1	inactive
CC1COCCN1c1cc(C2(O)CC3CCC(C2)O3)c2cnn(-c3ccn[nH]3)c2n1 (stereo not drawn) + Cc1cccc(N(C)C(=O)C2C(O)CCN2c2nc(C)cc(C(F)(F)F)c2C#N)c1	active
Nc1ccn(C2OC(CO)C(O)C2(F)F)c(=O)n1 (stereo not drawn) + Cc1cccc(N(C)C(=O)C2C(O)CCN2c2nc(C)cc(C(F)(F)F)c2C#N)c1	active

====

System: 855422-203-R-J1-PDC complex spheroid viability
Experiment: Anticancer human tumor 855422-203-R-J1-PDC cell line growth inhibition [POLQ];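 note: spheroids exposed to compounds for seven days before readout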
Conditions: second compound 3.16 µM; first compound 0.1 µM; hits give low values
Recorded viability, T/C by entry
ENDPOINT: viability, T/C (%)

MOLECULE	QUANTITATIVE_RESULT
COc1cc2cc(C(=O)CCC(=O)O)sc2cc1OC + COC1C(OC(N)=O)C(O)C(Oc2ccc3c(O)c(NC(=O)c4ccc(O)c(CC=C(C)C)c4)c(=O)oc3c2C)OC1(C)C	102
CC[C@@]1(O)C(=O)OCc2c1cc1n(c2=O)Cc2cc3c(CN(C)C)c(O)ccc3nc2-1 + COC1C(OC(N)=O)C(O)C(Oc2ccc3c(O)c(NC(=O)c4ccc(O)c(CC=C(C)C)c4)c(=O)oc3c2C)OC1(C)C	11.7
O=C(Nc1ccc(O)c(NS(=O)(=O)c2ccc(F)cc2)c1)c1ccc(-c2ccccc2)cc1 + COC1C(OC(N)=O)C(O)C(Oc2ccc3c(O)c(NC(=O)c4ccc(O)c(CC=C(C)C)c4)c(=O)oc3c2C)OC1(C)C	122
C#Cc1c(F)ccc2cc(O)cc(-c3ncc4c(N5CC6CCC(C5)N6)nc(OCC56CCCN5CC(F)C6)nc4c3F)c12 (centres undefined) + Nc1ccc(C#CCN(C(=O)Cc2ncc(C(F)(F)F)cc2C(F)(F)F)c2ccc(F)cc2)nn1	99
C#Cc1c(F)ccc2cc(O)cc(-c3ncc4c(N5CC6CCC(C5)N6)nc(OCC56CCCN5CC(F)C6)nc4c3F)c12 (centres undefined) + Cc1cccc(N(C)C(=O)C2C(O)CCN2c2nc(C)cc(C(F)(F)F)c2C#N)c1	92.3
CC1COCCN1c1cc(-c2ccnn2C)c2ccnc(-c3ccn[nH]3)c2n1 (centres undefined) + COC1C(OC(N)=O)C(O)C(Oc2ccc3c(O)c(NC(=O)c4ccc(O)c(CC=C(C)C)c4)c(=O)oc3c2C)OC1(C)C	85
Cn1ncnc1[C@H]1c2n[nH]c(=O)c3cc(F)cc(c23)N[C@@H]1c1ccc(F)cc1 + Nc1ccc(C#CCN(C(=O)Cc2ncc(C(F)(F)F)cc2C(F)(F)F)c2ccc(F)cc2)nn1	122
O=C(c1cc(Cc2n[nH]c(=O)c3ccccc23)ccc1F)N1CCN(C(=O)C2CC2)CC1 + Cc1cccc(N(C)C(=O)C2C(O)CCN2c2nc(C)cc(C(F)(F)F)c2C#N)c1	103
Nc1ccn(C2OC(CO)C(O)C2(F)F)c(=O)n1 (centres undefined) + COC1C(OC(N)=O)C(O)C(Oc2ccc3c(O)c(NC(=O)c4ccc(O)c(CC=C(C)C)c4)c(=O)oc3c2C)OC1(C)C	37.3
CCc1cc2c(N3CCc4c(cc(Cn5ccnc5)cc4-c4cn(C)nc4C(F)(F)F)C3=O)ccnc2c(OC)n1 + Nc1ccc(C#CCN(C(=O)Cc2ncc(C(F)(F)F)cc2C(F)(F)F)c2ccc(F)cc2)nn1	131
COc1cccc(OCCCN)c1-c1cc(Nc2cnc(C#N)cn2)n[nH]1 + Cc1cccc(N(C)C(=O)C2C(O)CCN2c2nc(C)cc(C(F)(F)F)c2C#N)c1	14.6
CC1COCCN1c1cc(C2(O)CC3CCC(C2)O3)c2cnn(-c3ccn[nH]3)c2n1 (centres undefined) + Nc1ccc(C#CCN(C(=O)Cc2ncc(C(F)(F)F)cc2C(F)(F)F)c2ccc(F)cc2)nn1	69
O=C(c1cc(Cc2n[nH]c(=O)c3ccccc23)ccc1F)N1CCN(C(=O)C2CC2)CC1 + COC1C(OC(N)=O)C(O)C(Oc2ccc3c(O)c(NC(=O)c4ccc(O)c(CC=C(C)C)c4)c(=O)oc3c2C)OC1(C)C	90.8
CC1COCCN1c1cc(-c2ccnn2C)c2ccnc(-c3ccn[nH]3)c2n1 (centres undefined) + Nc1ccc(C#CCN(C(=O)Cc2ncc(C(F)(F)F)cc2C(F)(F)F)c2ccc(F)cc2)nn1	128
CC(C)n1c(=O)n(C)c2cnc3cc(F)c(-c4ccc(OCCCN5CCCCC5)nc4)cc3c21 + COC1C(OC(N)=O)C(O)C(Oc2ccc3c(O)c(NC(=O)c4ccc(O)c(CC=C(C)C)c4)c(=O)oc3c2C)OC1(C)C	95
CCc1c2c(nc3ccc(O)cc13)-c1cc3c(c(=O)n1C2)COC(=O)[C@]3(O)CC + Nc1ccc(C#CCN(C(=O)Cc2ncc(C(F)(F)F)cc2C(F)(F)F)c2ccc(F)cc2)nn1	7.49
CC1COCCN1c1cc(C2(S(C)(=N)=O)CC2)nc(-c2ccnc3[nH]ccc23)n1 (centres undefined) + Nc1ccc(C#CCN(C(=O)Cc2ncc(C(F)(F)F)cc2C(F)(F)F)c2ccc(F)cc2)nn1	91.7
C=CCn1c(=O)c2cnc(Nc3ccc(N4CCN(C)CC4)cc3)nc2n1-c1cccc(C(C)(C)O)n1 + Nc1ccc(C#CCN(C(=O)Cc2ncc(C(F)(F)F)cc2C(F)(F)F)c2ccc(F)cc2)nn1	115
CC1COCCN1c1cc(C2(S(C)(=N)=O)CC2)nc(-c2ccnc3[nH]ccc23)n1 (centres undefined) + Cc1cccc(N(C)C(=O)C2C(O)CCN2c2nc(C)cc(C(F)(F)F)c2C#N)c1	119
